- Target: human GPR 119 receptor (Homo sapiens)
- Construct: expressed in transfected cells
- Sequence (Q8TDV5 whole entry): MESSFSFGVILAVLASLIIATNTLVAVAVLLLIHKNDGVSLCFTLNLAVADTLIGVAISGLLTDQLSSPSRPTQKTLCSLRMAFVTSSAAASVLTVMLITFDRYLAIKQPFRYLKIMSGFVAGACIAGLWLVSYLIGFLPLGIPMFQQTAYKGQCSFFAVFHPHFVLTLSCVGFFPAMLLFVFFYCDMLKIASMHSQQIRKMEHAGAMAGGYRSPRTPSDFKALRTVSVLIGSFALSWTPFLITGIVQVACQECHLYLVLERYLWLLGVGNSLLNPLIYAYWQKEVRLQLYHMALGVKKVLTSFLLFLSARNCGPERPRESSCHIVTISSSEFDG
- Measurement protocol: cAMP assay in stable cell line expressing recombinant human GPR 119 receptor
- Assay type: cell-based
- Run parameters: 1 uM compound; DMSO = 1
Assay metric: Fold increase in cyclic AMP with respective to DMSO (fold)

# Compound, Measurement
records = [
    ("CC(C)(C)OC(=O)N1CCC(Oc2cc(Oc3ccc(/C=C4\\SC(=O)NC4=O)cc3)ncn2)CC1", 7.00),
]

(a) Cc1c(Oc2ccc(/C=C3\SC(=O)NC3=O)cc2)ncnc1OC1CCN(C(=O)OCc2ccccc2)CC1
(b) CC(=O)CN1C(=O)S/C(=C\c2ccc(Oc3cc(OC4CCN(C(=O)OC(C)(C)C)CC4)ncn3)cc2)C1=O
Compare a and b and name the one whose reported Fold increase in cyclic AMP with respective to DMSO is smaller. Please reply using the label of the selected record.
a
(a: 1.42 fold, b: 5.45 fold)

Data provenance is patent US8785463B2.
